Cited source: patent US7074789B2

Target: Kdr (Homo sapiens, UniProt P35968)
Construct: Kinases are expressed as either kinase domains or full length constructs; made in house
Sequence (P35968 20-1356, species assumed): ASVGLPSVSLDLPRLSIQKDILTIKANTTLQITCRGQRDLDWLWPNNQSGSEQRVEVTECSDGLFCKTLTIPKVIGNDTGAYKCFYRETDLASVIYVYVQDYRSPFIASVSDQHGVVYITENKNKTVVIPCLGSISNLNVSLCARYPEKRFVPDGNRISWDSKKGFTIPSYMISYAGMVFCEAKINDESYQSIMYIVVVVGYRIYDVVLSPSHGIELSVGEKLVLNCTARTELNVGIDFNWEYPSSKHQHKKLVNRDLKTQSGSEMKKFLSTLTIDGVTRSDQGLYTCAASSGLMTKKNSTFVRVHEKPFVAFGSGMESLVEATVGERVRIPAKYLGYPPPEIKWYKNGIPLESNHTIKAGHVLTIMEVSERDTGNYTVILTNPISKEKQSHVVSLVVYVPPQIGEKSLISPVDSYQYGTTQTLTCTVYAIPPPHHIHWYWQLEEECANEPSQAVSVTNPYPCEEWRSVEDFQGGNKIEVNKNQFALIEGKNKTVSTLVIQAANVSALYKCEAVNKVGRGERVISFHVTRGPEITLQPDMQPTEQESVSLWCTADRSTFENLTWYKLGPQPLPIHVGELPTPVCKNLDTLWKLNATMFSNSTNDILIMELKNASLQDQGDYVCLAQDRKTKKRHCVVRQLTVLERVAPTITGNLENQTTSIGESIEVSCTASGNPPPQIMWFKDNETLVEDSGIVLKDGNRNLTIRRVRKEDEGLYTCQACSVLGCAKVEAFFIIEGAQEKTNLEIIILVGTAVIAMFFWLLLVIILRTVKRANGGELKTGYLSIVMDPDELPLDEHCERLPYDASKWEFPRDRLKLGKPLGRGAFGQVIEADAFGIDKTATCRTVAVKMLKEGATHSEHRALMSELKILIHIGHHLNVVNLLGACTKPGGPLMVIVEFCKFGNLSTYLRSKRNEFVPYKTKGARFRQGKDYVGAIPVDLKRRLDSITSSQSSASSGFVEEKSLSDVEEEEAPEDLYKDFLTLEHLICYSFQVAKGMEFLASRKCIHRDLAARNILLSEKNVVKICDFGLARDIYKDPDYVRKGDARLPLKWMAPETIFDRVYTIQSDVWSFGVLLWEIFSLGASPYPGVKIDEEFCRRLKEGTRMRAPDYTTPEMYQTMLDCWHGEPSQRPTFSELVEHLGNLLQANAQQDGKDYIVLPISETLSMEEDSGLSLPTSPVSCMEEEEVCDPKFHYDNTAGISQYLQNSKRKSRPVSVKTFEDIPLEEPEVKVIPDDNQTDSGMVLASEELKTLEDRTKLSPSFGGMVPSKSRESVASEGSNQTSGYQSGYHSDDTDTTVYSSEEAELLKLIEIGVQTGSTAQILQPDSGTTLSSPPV
Experiment: Kinase inhibition assay (33P transfer), Kdr
Assay type: biochemical
Conditions: Table 3, class symbols; read-out: KDR-1
Recorded Metric: IC50

INSERT INTO assay_data (record_smiles, recorded_metric, obs_value) VALUES
  ('COc1ccc(Nc2ncnc(Nc3cccc(C#N)c3)n2)cc1OC', 'IC50', '> 12.9 µM'),
  ('COc1ccc(Nc2ncnc(Nc3ccc4ncsc4c3)n2)cc1OC', 'IC50', '1.05 to 6.31 µM'),
  ('COC(=O)c1cccc(Nc2ncnc(-n3c(Cl)nc4ccccc43)n2)c1', 'IC50', '6.3 to 9.19 µM'),
  ('COc1cc(Nc2ncnc(-c3cccnc3Nc3ccc(C(C)=O)cc3)n2)cc(OC)c1OC', 'IC50', '0.847 to 5.08 µM'),
  ('CN(c1ccc2c(cnn2Cc2ccccc2)c1)c1ncnc(Nc2cccc(Cc3nnn[nH]3)c2)n1', 'IC50', '0.817 to 4.9 µM'),
  ('COc1cc(Nc2ncnc(-c3cccnc3Nc3cc(Cl)cc(Cl)c3)n2)cc(OC)c1OC', 'IC50', '> 9.01 µM'),
  ('c1ccc(-c2cc(Nc3ncnc(Nc4ccc5[nH]ncc5c4)n3)[nH]n2)cc1', 'IC50', '< 1.08 µM'),
  ('c1coc(-c2cc(Nc3ncnc(Nc4nc[nH]n4)n3)n[nH]2)c1', 'IC50', '1.29 to 7.73 µM');
